System: ATP;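 further: ATP exposure 15 min at 22 °C before imaging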
Protocol summary: switch fluorescence ratio, 500 uM ATP over buffer (Cy3 cluster intensity, sum of 5 cycles each) (fold (ratio)); higher = stronger signal-on switching upon ATP binding; sequences stand for … in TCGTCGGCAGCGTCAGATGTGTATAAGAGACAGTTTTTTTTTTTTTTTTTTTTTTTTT…TC
Assay context: aptamer strand: ATP DNA aptamer (quencher-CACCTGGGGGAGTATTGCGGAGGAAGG + anchor), 100 nM annealed; ATP concentration: 500 uM
The sequences listed here are annotated with their switch fluorescence ratio.

[
  {
    "Construct sequence": "CTTAGCTTGC",
    "switch fluorescence ratio": 1.02
  },
  {
    "Construct sequence": "CGGGTGGTTG",
    "switch fluorescence ratio": 1.04
  },
  {
    "Construct sequence": "CTACGTAATG",
    "switch fluorescence ratio": 3.16
  },
  {
    "Construct sequence": "CGTTTGAAAA",
    "switch fluorescence ratio": 1.02
  },
  {
    "Construct sequence": "GGGTGCTTTG",
    "switch fluorescence ratio": 1.02
  },
  {
    "Construct sequence": "TTATATTCGC",
    "switch fluorescence ratio": 1.02
  },
  {
    "Construct sequence": "AAATATTGTG",
    "switch fluorescence ratio": 0.982
  },
  {
    "Construct sequence": "TGTTTTAACT",
    "switch fluorescence ratio": 1.01
  },
  {
    "Construct sequence": "TGTTAAAGGA",
    "switch fluorescence ratio": 0.991
  },
  {
    "Construct sequence": "GAGTGGGGTA",
    "switch fluorescence ratio": 1
  },
  {
    "Construct sequence": "CTATACTTGA",
    "switch fluorescence ratio": 0.999
  },
  {
    "Construct sequence": "TATCCCTGTT",
    "switch fluorescence ratio": 0.976
  },
  {
    "Construct sequence": "ATTTGGGGAT",
    "switch fluorescence ratio": 1.02
  },
  {
    "Construct sequence": "GATATATGAG",
    "switch fluorescence ratio": 0.997
  },
  {
    "Construct sequence": "TATATATTAA",
    "switch fluorescence ratio": 1
  },
  {
    "Construct sequence": "TCCGGGTGTA",
    "switch fluorescence ratio": 1.14
  },
  {
    "Construct sequence": "TCTCAGTCCA",
    "switch fluorescence ratio": 1.02
  },
  {
    "Construct sequence": "CAGGTGGTCA",
    "switch fluorescence ratio": 1
  },
  {
    "Construct sequence": "TTTTTCTACC",
    "switch fluorescence ratio": 1.04
  },
  {
    "Construct sequence": "TAGGGGACAA",
    "switch fluorescence ratio": 1
  }
]

* * *

Tested on: ATP;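 further: ATP exposure 15 min at 22 °C before imaging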
Protocol summary: switch fluorescence ratio, 500 uM ATP over buffer (Cy3 cluster intensity, sum of 5 cycles each) (fold (ratio)); higher = stronger signal-on switching upon ATP binding; sequences stand for … in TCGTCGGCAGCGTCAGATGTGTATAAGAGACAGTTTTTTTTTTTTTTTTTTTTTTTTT…TC
Assay context: aptamer strand: ATP DNA aptamer (quencher-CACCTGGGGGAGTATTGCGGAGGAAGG + anchor), 100 nM annealed; ATP concentration: 500 uM
The sequences listed here are annotated with their switch fluorescence ratio.

[
  {
    "Construct sequence": "TAGGCTTTGG",
    "switch fluorescence ratio": 0.97
  },
  {
    "Construct sequence": "ATTAGTGATC",
    "switch fluorescence ratio": 1
  },
  {
    "Construct sequence": "GCAAACTAGG",
    "switch fluorescence ratio": 1.11
  },
  {
    "Construct sequence": "TAAATTTTGG",
    "switch fluorescence ratio": 1.01
  },
  {
    "Construct sequence": "ATTGTGCTGG",
    "switch fluorescence ratio": 0.983
  },
  {
    "Construct sequence": "GATTTAGGTT",
    "switch fluorescence ratio": 0.999
  },
  {
    "Construct sequence": "GGTCATTGTT",
    "switch fluorescence ratio": 0.964
  },
  {
    "Construct sequence": "TTAAGCTTAG",
    "switch fluorescence ratio": 1.01
  },
  {
    "Construct sequence": "GGGACCGAAC",
    "switch fluorescence ratio": 1.13
  },
  {
    "Construct sequence": "AAATTTTTC",
    "switch fluorescence ratio": 1
  },
  {
    "Construct sequence": "ACGTCGCATG",
    "switch fluorescence ratio": 1.09
  },
  {
    "Construct sequence": "AAAGCCGGTT",
    "switch fluorescence ratio": 0.969
  },
  {
    "Construct sequence": "GTTATAAAGT",
    "switch fluorescence ratio": 0.99
  },
  {
    "Construct sequence": "AGAGGGATAG",
    "switch fluorescence ratio": 1.19
  },
  {
    "Construct sequence": "AGTCGCCTTT",
    "switch fluorescence ratio": 1.02
  },
  {
    "Construct sequence": "GCACGGGAGG",
    "switch fluorescence ratio": 1.01
  },
  {
    "Construct sequence": "TCCAGTTGCT",
    "switch fluorescence ratio": 1.02
  },
  {
    "Construct sequence": "GATCTGGCGG",
    "switch fluorescence ratio": 1.01
  },
  {
    "Construct sequence": "ATTTAAGAGA",
    "switch fluorescence ratio": 1.01
  },
  {
    "Construct sequence": "TGCAAGAGTG",
    "switch fluorescence ratio": 1.03
  },
  {
    "Construct sequence": "AGTTTTGTTC",
    "switch fluorescence ratio": 1.01
  }
]
